Organism: Homo sapiens
ASSAY TEXT: Covalent modification of GAB-buffer assembled microtubule (unknown origin) assessed as effect on nucleotide binding affinity at E-site by measuring ratio of GTP concentration to tubulin concentration incubated for 30 mins in presence or absence of 1 mM GTP and measured after 20 mins by HPLC analysis (reference value: 1)
ASSAY METRIC: Ratio
Note: the reply should be a number with no unit written.

Before answering, review these 3 worked examples.
CC1=C[C@H]2[C@@H](O)[C@H](C)[C@@H](O)[C@@H]2[C@H]2[C@@H]3C4=C5O[C@@](C)(CC[C@H](OC4=O)[C@@H]5C)[C@@H]3C[C@@H]12    1.03
CC(=O)O[C@@]12CO[C@@H]1C[C@H](O)[C@@]1(C)C(=O)[C@H](O)C3=C(C)[C@@H](OC(=O)[C@H](O)[C@@H](NC(=O)OC(C)(C)C)c4ccccc4)C[C@@](O)([C@@H](OC(=O)c4ccccc4)[C@H]21)C3(C)C    1.02
C=C1C[C@@H]2C/C=C/C(=O)C/C(C)=C\C=C\C(=O)O[C@H]([C@H](O)NC(=O)/C=C\C=C\C)C/C(C)=C/[C@H](C1)O2    0.92

Request: Data request, read-out Ratio, for C=C1C[C@H]2C/C=C/C(=O)C/C(C)=C\C=C\C(=O)O[C@@H](C=O)C/C(C)=C/[C@@H](C1)O2
Result: 0.95
